system: Escherichia coli; test: Bactericidal activity against Escherichia coli ATCC 8739 measured after 24 hrs by broth dilution method; format: functional
Quick reference for MBC among some compounds

{"columns": ["Smiles notation", "Relation", "MBC / µg"],
 "data": [
  ["COc1ccc(-c2ccc(-c3nc(C)sc3C)cc2)cc1", "=", 25],
  ["Cc1nc(-c2ccc(-c3ccc(O)cc3)cc2)c(C)s1", ">", 200],
  ["Cc1nc(-c2ccc(-c3ccc(CO)cc3)cc2)c(C)s1", "=", 100],
  ["Cc1ccc(-c2ccc(-c3nc(C)sc3C)cc2)cc1", "=", 100],
  ["Cc1cc(C)c(-c2ccc(-c3nc(C)sc3C)cc2)c(C)c1", "=", 12.5],
  ["COc1ccc(-c2ccc(-c3nc(C)sc3C)cc2)cc1OC", "=", 200]
]}
